The reported measurements were obtained from the MegaScale stability set (Tsuboyama et al. 2023).

B1: r4_43_TrROS_Hall (parent)
chain: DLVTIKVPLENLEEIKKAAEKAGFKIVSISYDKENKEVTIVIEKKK

- Variants of: B1
- method_description: folding stability dG (cDNA display proteolysis); higher = more stable
- condition_info: PBS, room temperature
Attribute: folding stability dG
experimental_endpoint: folding stability dG (kcal/mol)

- V38C: 3.57
- V38F: 3.57
- I5R: 3.1
- D1G: 3.47
- E13V: 3.61
- G23K: 3.73
- N11A: 3.83
- E10R: 3.72
- I15V: 3.87
- S30K: 3.59
- A22V: 3.75
